Hello, the source for this data is the supplement of paper PMC9170038, in case you need it.

test system: MS2 coat protein; test: apparent KD of MS2 coat protein; designed switch direction (-1 OFF switch, 1 ON switch): -1; higher = weaker reporter binding; settings: input ligand: FMN 200 uM
property: apparent KD of MS2 coat protein (nM)
Form entry: value (nM) — number only.

Some solved cases for reference:
GGGUGUGAAGGAUAUACAUGAGGAUCACCCAUGUGAGAGGAGAAUGUUGAGGAGGUUGGUAGAAGGUCAGGAGG [JR_Exclusion3_Sub010] (Eterna round: R96, puzzle: Exclusion 3) ... 202
UUAUUAUAUGUAGGAUAUGCAUAUUGUUGUUAUGCAGAAGGACAUGAGGAUCACCCAUGUAUAUUGUUGUUAUAUAUUAUAUAU [Title] (Eterna round: R96, puzzle: Exclusion NG 1) ... 27.1

Reading of apparent KD of MS2 coat protein for UGUAAGCUAGGAUAUGCUUUGGGAAAGCAUUCCUUCGAUAAACUUGAGGAUCACCCAAGUAGAAGGAGCUUACA [salish99_ex2_r4_005] (Eterna round: R97, puzzle: Exclusion 2) with MS2 coat protein: 20.8

Reading of apparent KD of MS2 coat protein for AUAAUACAUGUAGGAUAUGCGUGGCGAAGCUAUGCAGAAGGACAUGAGGAUCACCCAUGUUCUAGCGUCUGCGUACAGAUGCUA [JL eng1 1.35 mod 1] (Eterna round: R96, puzzle: Exclusion NG 1) with MS2 coat protein: 37.3

Reading of apparent KD of MS2 coat protein for GUCGUACAUGAGGAUCACCCAUGUGAGGAUAUGGGCGGCGCCGCAAAAGCGGCGCCGCCCAGAAGGCGCAUGAU [Malcxlusion 6 - Jieux - Exclusion 1] (Eterna round: R97, puzzle: Exclusion 1) with MS2 coat protein: 234
